Please go through the items and note down their phosphorylation enrichment.
# measuredTarget: MERTK (UniProt Q12866)
# Sequence (Q12866 whole entry, looked up): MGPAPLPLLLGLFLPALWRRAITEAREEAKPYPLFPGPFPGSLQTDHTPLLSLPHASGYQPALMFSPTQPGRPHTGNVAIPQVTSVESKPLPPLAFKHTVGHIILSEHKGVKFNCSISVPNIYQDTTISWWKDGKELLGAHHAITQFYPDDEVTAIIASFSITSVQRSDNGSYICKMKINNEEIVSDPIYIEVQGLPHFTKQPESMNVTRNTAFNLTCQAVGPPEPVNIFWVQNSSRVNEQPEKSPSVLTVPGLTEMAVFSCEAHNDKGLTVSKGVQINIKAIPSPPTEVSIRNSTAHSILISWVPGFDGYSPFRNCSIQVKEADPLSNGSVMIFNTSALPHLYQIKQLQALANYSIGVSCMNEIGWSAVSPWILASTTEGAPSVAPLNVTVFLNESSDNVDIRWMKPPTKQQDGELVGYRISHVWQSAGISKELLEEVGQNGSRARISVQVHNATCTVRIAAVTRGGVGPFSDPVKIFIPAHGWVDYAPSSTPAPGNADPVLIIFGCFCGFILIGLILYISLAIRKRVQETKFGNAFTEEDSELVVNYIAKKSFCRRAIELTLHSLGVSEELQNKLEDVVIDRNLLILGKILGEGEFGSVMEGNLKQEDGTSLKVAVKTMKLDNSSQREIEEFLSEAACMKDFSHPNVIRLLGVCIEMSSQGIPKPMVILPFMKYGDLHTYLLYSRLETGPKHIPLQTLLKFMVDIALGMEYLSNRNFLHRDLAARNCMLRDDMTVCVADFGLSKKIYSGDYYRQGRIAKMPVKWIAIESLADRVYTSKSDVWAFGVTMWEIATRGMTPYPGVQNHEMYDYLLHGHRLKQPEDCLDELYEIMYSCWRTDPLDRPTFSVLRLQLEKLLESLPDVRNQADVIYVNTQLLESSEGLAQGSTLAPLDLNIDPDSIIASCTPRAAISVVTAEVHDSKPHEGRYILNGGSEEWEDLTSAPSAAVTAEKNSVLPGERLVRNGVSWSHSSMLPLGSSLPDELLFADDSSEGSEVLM
# testDetails: phosphorylation enrichment, bacterial display (enrichment ratio); higher = better substrate or ligand; peptides without Tyr show the background;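 note: 11-residue human phosphosite peptides and single-mutation variants displayed on the E. coli surface, counted by deep sequencing, each peptide's frequency after selection divided by its frequency in the unselected input library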;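 note: frequency after pTyr selection over input frequency; kinase dosed for 20-30% of maximal phosphorylation in three min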
A bare number is all that is needed in reply.

The reported value for TRSFDYMEGED [FGF7_Y58_G62E_YF] in terms of phosphorylation enrichment is 0.435

The reported value for TFHNTYHSQMR [IL1RAPL1_Y615] in terms of phosphorylation enrichment is 0.402

The reported value for RRNTYYASIAK [ACADM_Y353] in terms of phosphorylation enrichment is 1.13

The reported value for SFLSYYTSHVQ [NEFL_Y443_P440L] in terms of phosphorylation enrichment is 2.19

The reported value for YRQNVYIPGSN [PCDHGA1_Y895] in terms of phosphorylation enrichment is 0.424

The reported value for TKDTFYKQRMF [GBA_Y451_P454R] in terms of phosphorylation enrichment is 0.372

The reported value for ENRLDYGSAWA [AR_Y395_P392R] in terms of phosphorylation enrichment is 0.364

The reported value for PLQKTYNYNVL [SLC4A1_Y553] in terms of phosphorylation enrichment is 0.43

The reported value for FITVGYVDDTQ [HLA-B_Y51_S48T] in terms of phosphorylation enrichment is 0.482

The reported value for LGLDEYLDKLK [FMNL2_Y352] in terms of phosphorylation enrichment is 0.569

The reported value for NPSYNYEIVNQ [DYNC1H1_Y3379_R3384Q] in terms of phosphorylation enrichment is 0.694

The reported value for MKTISYETLIA [DOCK10_Y1350] in terms of phosphorylation enrichment is 0.384

The reported value for HNELYYEAAEH [VANGL1_Y345_E347A] in terms of phosphorylation enrichment is 5.06

The reported value for NMHSTYAKLAA [SEC22B_Y193] in terms of phosphorylation enrichment is 0.38

The reported value for IRTDAYVQAMT [RPE65_Y89_R91Q] in terms of phosphorylation enrichment is 0.374

The reported value for ICANKYMVKSC [RPL10_Y75] in terms of phosphorylation enrichment is 0.409

The reported value for EQLRAYLEGEC [HLA-C_Y183_T187E] in terms of phosphorylation enrichment is 0.51

The reported value for QNVADYMRYLM [RPL5_Y207] in terms of phosphorylation enrichment is 0.523

The reported value for GESVSYLFSHV [PRPS1_Y311] in terms of phosphorylation enrichment is 0.421

The reported value for KLFFIYTSGTT [SLC27A4_Y245_YF] in terms of phosphorylation enrichment is 0.398

The reported value for FSGDFYRIQGR [DDR2_Y741_YF] in terms of phosphorylation enrichment is 0.421

The reported value for IENKLYGTSDP [RET_Y1062_M1064T] in terms of phosphorylation enrichment is 0.526

The reported value for SVTCTYSPALK [TP53_Y126_N131K] in terms of phosphorylation enrichment is 0.405

The reported value for ARKCKYFKKHE [NFIX_Y40_R38C] in terms of phosphorylation enrichment is 0.486

The reported value for TEALFYTDDTA [ADPRS_Y75_YF] in terms of phosphorylation enrichment is 0.541

The reported value for KKMEVYQSIAD [MYBPC3_Y548_L545M] in terms of phosphorylation enrichment is 0.451

The reported value for GGTTLYPGIAD [ACTC1_Y308_M307L] in terms of phosphorylation enrichment is 0.381

The reported value for KKFVPYFDLFM [IPO5_Y530_E525K_YF] in terms of phosphorylation enrichment is 0.645

The reported value for KPYRVYCDMNT [FGB_Y269] in terms of phosphorylation enrichment is 0.492

The reported value for YSMGCYEISLG [HMGCL_Y198] in terms of phosphorylation enrichment is 2.66

The reported value for SHGQDYLVGNK [GSTA1_Y147] in terms of phosphorylation enrichment is 0.363

The reported value for ATLDVYNPFET [SCAMP3_Y41] in terms of phosphorylation enrichment is 0.556

The reported value for KFVKMCDNHQL [MYO9A_Y203_Y203C_YF] in terms of phosphorylation enrichment is 0.378

The reported value for MFNPFYGLFEF [NEDD4L_Y680_YF] in terms of phosphorylation enrichment is 5.83

The reported value for HSFQCYGQNEA [ENTPD3_Y262_R264Q] in terms of phosphorylation enrichment is 0.422

The reported value for RQQQDYWLKDV [ANPEP_Y600_I603K] in terms of phosphorylation enrichment is 0.52

The reported value for SGEKPYKCSEC [ZNF543_Y283] in terms of phosphorylation enrichment is 0.58

The reported value for ACEVLYNIAFM [NCF2_Y125] in terms of phosphorylation enrichment is 2.03

The reported value for DWWQEYVLNES [TGM1_Y267_R264W] in terms of phosphorylation enrichment is 0.403

The reported value for TENAGYYFRVS in terms of phosphorylation enrichment is 0.714

The reported value for EKLQKYFRKNP [EHHADH_Y682_Q685K_YF] in terms of phosphorylation enrichment is 0.567

The reported value for VPLATYMQIFK [RPL21_Y30_R32Q_YF] in terms of phosphorylation enrichment is 0.613

The reported value for GAVDTYCRHNF [HLA-DRB1_Y107_A102G_YF] in terms of phosphorylation enrichment is 0.474

The reported value for SDVCMYRKNTF [SYNE2_Y570_I574T_YF] in terms of phosphorylation enrichment is 0.4

The reported value for LAVVDYIRRQK [ATM_Y1915_M1916I] in terms of phosphorylation enrichment is 0.863

The reported value for GNLLIYTDFGK [HGD_Y166_E168D] in terms of phosphorylation enrichment is 3.44

The reported value for KMKGDYFRFLA [YWHAG_Y130_YF] in terms of phosphorylation enrichment is 0.632

The reported value for RSFSPCDFQPC [TNS1_Y796_Y796C_YF] in terms of phosphorylation enrichment is 0.643

The reported value for FIAVGYVDDTQ [HLA-A_Y51] in terms of phosphorylation enrichment is 0.415

The reported value for MASISYDFCRV [BST2_Y6_T4I_YF] in terms of phosphorylation enrichment is 0.653

The reported value for QMVDMYASSYM [AVPR2_Y124_G122D] in terms of phosphorylation enrichment is 0.842

The reported value for KEDSAYGSQSV [NFKB2_Y868] in terms of phosphorylation enrichment is 0.454

The reported value for EITSHYRHLLR [ZBTB46_Y14] in terms of phosphorylation enrichment is 0.392

The reported value for TRGLEYIVPLM [CLCN4_Y548_G544R] in terms of phosphorylation enrichment is 0.457

The reported value for YADPYYDYEIE [ZC3H18_Y372] in terms of phosphorylation enrichment is 2.18

The reported value for KPNMNYDKLSQ [FLI1_Y332_R337Q] in terms of phosphorylation enrichment is 0.394

The reported value for YDGKDYIALKE [HLA-A_Y147_N151K] in terms of phosphorylation enrichment is 0.439

The reported value for CYCSWYRGWAP [TIMP3_Y195_G190C] in terms of phosphorylation enrichment is 0.733

====

# measuredTarget: Fyn (UniProt P06241)
# Sequence (P06241 whole entry, looked up): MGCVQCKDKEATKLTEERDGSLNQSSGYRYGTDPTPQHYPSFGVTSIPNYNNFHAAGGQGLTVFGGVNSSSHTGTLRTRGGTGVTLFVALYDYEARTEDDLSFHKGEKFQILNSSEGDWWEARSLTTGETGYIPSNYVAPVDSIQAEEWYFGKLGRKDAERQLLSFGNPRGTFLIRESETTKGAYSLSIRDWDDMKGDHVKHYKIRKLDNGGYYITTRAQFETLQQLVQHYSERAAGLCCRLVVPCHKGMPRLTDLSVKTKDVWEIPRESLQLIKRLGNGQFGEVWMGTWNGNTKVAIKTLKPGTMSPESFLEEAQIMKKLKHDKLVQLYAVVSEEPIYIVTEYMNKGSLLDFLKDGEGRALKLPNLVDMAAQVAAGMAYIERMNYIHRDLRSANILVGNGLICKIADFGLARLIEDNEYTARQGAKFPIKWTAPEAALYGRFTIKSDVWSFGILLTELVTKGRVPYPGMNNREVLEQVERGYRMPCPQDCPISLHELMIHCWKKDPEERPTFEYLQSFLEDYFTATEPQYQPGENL
# testDetails: phosphorylation enrichment, bacterial display (enrichment ratio); higher = better substrate or ligand; peptides without Tyr show the background
Please go through the items and note down their phosphorylation enrichment.
A bare number is all that is needed in reply.

The reported value for NFATLYLKIYH [PDE6B_Y219] in terms of phosphorylation enrichment is 0.42

The reported value for DISEPYEVYRI [IRF8_Y107_K108E] in terms of phosphorylation enrichment is 1.55

The reported value for TGILLYGLASR [QARS1_Y57] in terms of phosphorylation enrichment is 0.578

The reported value for IIWDSYTTNKM [GNB4_Y85] in terms of phosphorylation enrichment is 0.682

The reported value for QFQLKYSETPF [SIX6OS1_Y129_YF] in terms of phosphorylation enrichment is 0.811

The reported value for MASISYDFCRV [BST2_Y6_T4I_YF] in terms of phosphorylation enrichment is 0.554

The reported value for GKSDPYHATTG [GJA1_Y247_S251T] in terms of phosphorylation enrichment is 0.345

The reported value for KQINDYVEKGT [SERPINA1_Y184] in terms of phosphorylation enrichment is 0.44

The reported value for PDSVDYPKKGF [CTSK_Y121_R122P_YF] in terms of phosphorylation enrichment is 1.17

The reported value for TTPFNYSFIFK [RAB14_Y8_A4T_YF] in terms of phosphorylation enrichment is 0.705

The reported value for DSNPIYSQIWS [FCRL3_Y662] in terms of phosphorylation enrichment is 12.1

The reported value for PLQHVYKIGGI [EEF1A2_Y254_D252H] in terms of phosphorylation enrichment is 0.643

The reported value for SHGQDYLVGNK [GSTA1_Y147] in terms of phosphorylation enrichment is 0.451

The reported value for YRKNIYNVKST [SYNE2_Y575] in terms of phosphorylation enrichment is 0.458

The reported value for NGSKGYAFVHF [PABPC5_Y147_YF] in terms of phosphorylation enrichment is 0.469

The reported value for WGLCSYYETSK [MAGED2_Y448_R446C] in terms of phosphorylation enrichment is 0.488

The reported value for DENWFYTQAAS [RPS19_Y54_R56Q] in terms of phosphorylation enrichment is 0.388

The reported value for LKVDVYGRSHK [FUT3_Y222] in terms of phosphorylation enrichment is 0.324

The reported value for FSCLPYRRLAF [SLC52A2_Y305_G306R_YF] in terms of phosphorylation enrichment is 0.559

The reported value for DPHQQYFIAMD [TBX15_Y159_YF] in terms of phosphorylation enrichment is 0.551

The reported value for THPFLYLSLEI [MLH1_Y293] in terms of phosphorylation enrichment is 0.383

The reported value for KIIATYRLCSE [DNAH3_Y1586_V1583I] in terms of phosphorylation enrichment is 0.407

The reported value for QTWKTYVRQQQ [SFI1_Y164] in terms of phosphorylation enrichment is 0.526

The reported value for YRDALYKSMVD [PHEX_Y250_F252S] in terms of phosphorylation enrichment is 0.495

The reported value for EQLRAYLEGLC [HLA-C_Y183_T187L] in terms of phosphorylation enrichment is 0.482

The reported value for RYVTRYIYNRE [HLA-DQB1_Y62] in terms of phosphorylation enrichment is 0.701

The reported value for FKDGQYWIRGW [ACSF3_Y466_R471W] in terms of phosphorylation enrichment is 0.513

The reported value for AQMAMYFWEMS [TRPM4_Y577_G582S] in terms of phosphorylation enrichment is 1.15

The reported value for GTTIHYNYMCN [TP53_Y234_C229G] in terms of phosphorylation enrichment is 0.614
